- Tested on: SW 1573
- Test protocol: relative viability (nuclei count vs DMSO), 5 days (fraction); higher = more cells survive
- Condition summary: first compound 0.01 µM
Give measured relative viability for each item. Keep answers brief.

{"Compound": "CC(C)Oc1cc(Nc2nc(N[C@@H](C)c3ccc(F)cn3)ncc2Cl)n[nH]1 [AZ23] + O=C(CCCCCCC(=O)Nc1ccccc1)NO [Vorinostat] (partner 1 µM)", "Result value": 0.963}

// below: relative viability requested for another compound
relative viability of CC(C)Oc1cc(Nc2nc(N[C@@H](C)c3ccc(F)cn3)ncc2Cl)n[nH]1 [AZ23] + CC1(C)CCC(c2ccc(Cl)cc2)=C(CN2CCN(c3ccc(C(=O)NS(=O)(=O)c4ccc(N[C@H](CCN5CCOCC5)CSc5ccccc5)c(S(=O)(=O)C(F)(F)F)c4)cc3)CC2)C1 [Navitoclax] (partner 0.5 µM) on SW 1573?
0.991

---

- Test system: HOP-62
- Test protocol: relative viability (nuclei count vs DMSO), 5 days (fraction); higher = more cells survive
- Condition summary: first compound 0.04 µM
Quantity kind: relative viability
Numbers only.

Example entries begin here.
{"Molecule": "COc1cc(N2CCC(C(N)=O)CC2)ccc1Nc1nc(N)c(Cl)c(Nc2ccccc2S(=O)(=O)C(C)C)n1 [HG-5-88-01] + CS(=O)(=O)CCNCc1ccc(-c2ccc3ncnc(Nc4ccc(OCc5cccc(F)c5)c(Cl)c4)c3c2)o1 [Lapatinib] (partner 2 µM)", "Target entity": "HOP-62", "relative viability": 1.1}
{"Molecule": "C[C@@H]1CN(CC(=O)Nc2ccc3c(c2)Cc2cccc(-c4cc(=O)cc(N5CCOCC5)o4)c2S3)C[C@H](C)O1 + CCNC(=O)c1noc(-c2cc(C(C)C)c(O)cc2O)c1-c1ccc(CN2CCOCC2)cc1 [Luminespib] (partner 0.01 µM)", "Target entity": "HOP-62", "relative viability": 0.917}
{"Molecule": "C[C@@H]1CN(CC(=O)Nc2ccc3c(c2)Cc2cccc(-c4cc(=O)cc(N5CCOCC5)o4)c2S3)C[C@H](C)O1 + COc1cccc2cc(-c3nc([C@H]4CC[C@H](C(=O)O)CC4)n4ncnc(N)c34)[nH]c12 [OSI-027] (partner 0.5 µM)", "Target entity": "HOP-62", "relative viability": 0.828}

Look up relative viability: Clc1ccc(Nc2nnc(Cc3ccncc3)c3ccccc23)cc1 [Vatalanib] + COc1cccc2cc(-c3nc([C@H]4CC[C@H](C(=O)O)CC4)n4ncnc(N)c34)[nH]c12 [OSI-027] (partner 0.5 µM)
0.906

---

- Tested on: EMC-BAC-2
- Test protocol: relative viability (nuclei count vs DMSO), 5 days (fraction); higher = more cells survive
- Condition summary: first compound 0.3162 µM
Quantity kind: relative viability
One number for each entry.

// each molecule listed below needs its relative viability
1. CC(C)Oc1cc(Nc2nc(N[C@@H](C)c3ccc(F)cn3)ncc2Cl)n[nH]1 [AZ23] + Cc1cc(Nc2cc(N3CCN(C)CC3)nc(Sc3ccc(NC(=O)C4CC4)cc3)n2)n[nH]1 [Tozasertib] (partner 0.1 µM)
2. CC(C)Oc1cc(Nc2nc(N[C@@H](C)c3ccc(F)cn3)ncc2Cl)n[nH]1 [AZ23] + COc1cccc2cc(-c3nc([C@H]4CC[C@H](C(=O)O)CC4)n4ncnc(N)c34)[nH]c12 [OSI-027] (partner 0.5 µM)

1. 0.296
2. 0.365

---

- Tested on: UMC-11
- Test protocol: relative viability (nuclei count vs DMSO), 5 days (fraction); higher = more cells survive
- Condition summary: first compound 0.04 µM
Quantity kind: relative viability
Numbers only.

{"Compound": "Clc1ccc(Nc2nnc(Cc3ccncc3)c3ccccc23)cc1 [Vatalanib] + N=C(N)NC(=N)NCCc1ccccc1 [Phenformin] (partner 250 µM)", "relative viability": 0.311}
{"Compound": "C[C@@H]1CN(CC(=O)Nc2ccc3c(c2)Cc2cccc(-c4cc(=O)cc(N5CCOCC5)o4)c2S3)C[C@H](C)O1 + CC(=O)Nc1cccc(-n2c(=O)n(C3CC3)c(=O)c3c(Nc4ccc(I)cc4F)n(C)c(=O)c(C)c32)c1 [Trametinib] (partner 0.02 µM)", "relative viability": 0.732}
{"Compound": "C[C@@H]1CN(CC(=O)Nc2ccc3c(c2)Cc2cccc(-c4cc(=O)cc(N5CCOCC5)o4)c2S3)C[C@H](C)O1 + COc1cccc2cc(-c3nc([C@H]4CC[C@H](C(=O)O)CC4)n4ncnc(N)c34)[nH]c12 [OSI-027] (partner 0.5 µM)", "relative viability": 0.51}
{"Compound": "Clc1ccc(Nc2nnc(Cc3ccncc3)c3ccccc23)cc1 [Vatalanib] + Cc1nc(Nc2ncc(C(=O)Nc3c(C)cccc3Cl)s2)cc(N2CCN(CCO)CC2)n1 [Dasatinib] (partner 0.075 µM)", "relative viability": 0.422}
{"Compound": "COc1cc(N2CCC(C(N)=O)CC2)ccc1Nc1nc(N)c(Cl)c(Nc2ccccc2S(=O)(=O)C(C)C)n1 [HG-5-88-01] + CS(=O)(=O)N1CCN(Cc2cc3nc(-c4cccc5[nH]ncc45)nc(N4CCOCC4)c3s2)CC1 [Pictilisib] (partner 1 µM)", "relative viability": 0.506}
{"Compound": "C[C@@H]1CN(CC(=O)Nc2ccc3c(c2)Cc2cccc(-c4cc(=O)cc(N5CCOCC5)o4)c2S3)C[C@H](C)O1 + CS(=O)(=O)CCNCc1ccc(-c2ccc3ncnc(Nc4ccc(OCc5cccc(F)c5)c(Cl)c4)c3c2)o1 [Lapatinib] (partner 2 µM)", "relative viability": 0.984}
{"Compound": "C[C@@H]1CN(CC(=O)Nc2ccc3c(c2)Cc2cccc(-c4cc(=O)cc(N5CCOCC5)o4)c2S3)C[C@H](C)O1 + CC(C)C[C@H](NC(=O)[C@H](Cc1ccccc1)NC(=O)c1cnccn1)B(O)O [Bortezomib] (partner 0.002 µM)", "relative viability": 0.778}
{"Compound": "Clc1ccc(Nc2nnc(Cc3ccncc3)c3ccccc23)cc1 [Vatalanib] + O=C(CCCCCCC(=O)Nc1ccccc1)NO [Vorinostat] (partner 1 µM)", "relative viability": 0.361}

Read the next record carefully.
Give relative viability (UMC-11) of the following compound: COc1cc(N2CCC(C(N)=O)CC2)ccc1Nc1nc(N)c(Cl)c(Nc2ccccc2S(=O)(=O)C(C)C)n1 [HG-5-88-01] + COc1cccc2cc(-c3nc([C@H]4CC[C@H](C(=O)O)CC4)n4ncnc(N)c34)[nH]c12 [OSI-027] (partner 0.5 µM)
0.347

---

- Test system: NCI-H1944
- Test protocol: relative viability (nuclei count vs DMSO), 5 days (fraction); higher = more cells survive
- Condition summary: first compound 4 µM
Please respond with reported relative viability for every item in the list.

# annotated cases, reported relative viability shown
{"Compound": "C[C@@H]1CN(CC(=O)Nc2ccc3c(c2)Cc2cccc(-c4cc(=O)cc(N5CCOCC5)o4)c2S3)C[C@H](C)O1 + C[C@]1(O)C[C@@H](c2nc(-c3ccc4ccc(-c5ccccc5)nc4c3)c3c(N)nccn32)C1 [Linsitinib] (partner 1 µM)", "Quantity kind": "relative viability", "Result value": 1.22}
{"Compound": "COc1cc(N2CCC(C(N)=O)CC2)ccc1Nc1nc(N)c(Cl)c(Nc2ccccc2S(=O)(=O)C(C)C)n1 [HG-5-88-01] + CC(=O)c1c(C)c2cnc(Nc3ccc(N4CCNCC4)cn3)nc2n(C2CCCC2)c1=O [Palbociclib] (partner 0.5 µM)", "Quantity kind": "relative viability", "Result value": 0.31}
{"Compound": "COc1cc(N2CCC(C(N)=O)CC2)ccc1Nc1nc(N)c(Cl)c(Nc2ccccc2S(=O)(=O)C(C)C)n1 [HG-5-88-01] + CS(=O)(=O)N1CCN(Cc2cc3nc(-c4cccc5[nH]ncc45)nc(N4CCOCC4)c3s2)CC1 [Pictilisib] (partner 1 µM)", "Quantity kind": "relative viability", "Result value": 0.352}

Continue with the compound presented below.
Which relative viability is listed for C[C@@H]1CN(CC(=O)Nc2ccc3c(c2)Cc2cccc(-c4cc(=O)cc(N5CCOCC5)o4)c2S3)C[C@H](C)O1 + Cc1nc(NC(=O)N2CCC[C@H]2C(N)=O)sc1-c1ccnc(C(C)(C)C(F)(F)F)c1 [Alpelisib] (partner 2 µM) ?
0.814

---

- Test system: NCI-H650
- Test protocol: relative viability (nuclei count vs DMSO), 5 days (fraction); higher = more cells survive
- Condition summary: first compound 1.265 µM
Quantity kind: relative viability
One number for each entry.

Worked cases, answers included:
{"Compound": "COc1cc(N2CCC(C(N)=O)CC2)ccc1Nc1nc(N)c(Cl)c(Nc2ccccc2S(=O)(=O)C(C)C)n1 [HG-5-88-01] + CS(=O)(=O)N1CCN(Cc2cc3nc(-c4cccc5[nH]ncc45)nc(N4CCOCC4)c3s2)CC1 [Pictilisib] (partner 1 µM)", "Target entity": "NCI-H650", "relative viability": 0.743}
{"Compound": "COc1cc(N2CCC(C(N)=O)CC2)ccc1Nc1nc(N)c(Cl)c(Nc2ccccc2S(=O)(=O)C(C)C)n1 [HG-5-88-01] + CS(=O)(=O)CCNCc1ccc(-c2ccc3ncnc(Nc4ccc(OCc5cccc(F)c5)c(Cl)c4)c3c2)o1 [Lapatinib] (partner 2 µM)", "Target entity": "NCI-H650", "relative viability": 0.943}
{"Compound": "Clc1ccc(Nc2nnc(Cc3ccncc3)c3ccccc23)cc1 [Vatalanib] + Nc1ncn([C@H]2C[C@H](O)[C@@H](CO)O2)c(=O)n1 [Decitabine] (partner 2 µM)", "Target entity": "NCI-H650", "relative viability": 0.327}

Quick batch: relative viability for everything below.
1. Clc1ccc(Nc2nnc(Cc3ccncc3)c3ccccc23)cc1 [Vatalanib] + O=C(CCCCCCC(=O)Nc1ccccc1)NO [Vorinostat] (partner 1 µM)
2. COc1cc(N2CCC(C(N)=O)CC2)ccc1Nc1nc(N)c(Cl)c(Nc2ccccc2S(=O)(=O)C(C)C)n1 [HG-5-88-01] + CCNC(=O)c1noc(-c2cc(C(C)C)c(O)cc2O)c1-c1ccc(CN2CCOCC2)cc1 [Luminespib] (partner 0.01 µM)

1. 0.414
2. 0.63

Batch request: relative viability for each of the following compounds.
1. COc1cc(N2CCC(C(N)=O)CC2)ccc1Nc1nc(N)c(Cl)c(Nc2ccccc2S(=O)(=O)C(C)C)n1 [HG-5-88-01] + NC(=O)Nc1cc(-c2cccc(F)c2)sc1C(=O)N[C@H]1CCCNC1 [AZD7762] (partner 0.2 µM)
2. COc1cc(N2CCC(C(N)=O)CC2)ccc1Nc1nc(N)c(Cl)c(Nc2ccccc2S(=O)(=O)C(C)C)n1 [HG-5-88-01] + COc1cc2c(Oc3ccc(NC(=O)C4(C(=O)Nc5ccc(F)cc5)CC4)cc3F)ccnc2cc1OCCCN1CCOCC1 [Foretinib] (partner 0.25 µM)
3. Clc1ccc(Nc2nnc(Cc3ccncc3)c3ccccc23)cc1 [Vatalanib] + Cc1nc(NC(=O)N2CCC[C@H]2C(N)=O)sc1-c1ccnc(C(C)(C)C(F)(F)F)c1 [Alpelisib] (partner 2 µM)
4. Clc1ccc(Nc2nnc(Cc3ccncc3)c3ccccc23)cc1 [Vatalanib] + Nc1nc2[nH]cc(CCc3ccc(C(=O)N[C@@H](CCC(=O)O)C(=O)O)cc3)c2c(=O)[nH]1 [Pemetrexed] (partner 0.2 µM)
5. Clc1ccc(Nc2nnc(Cc3ccncc3)c3ccccc23)cc1 [Vatalanib] + Cc1cc(Nc2cc(N3CCN(C)CC3)nc(Sc3ccc(NC(=O)C4CC4)cc3)n2)n[nH]1 [Tozasertib] (partner 0.1 µM)
6. Clc1ccc(Nc2nnc(Cc3ccncc3)c3ccccc23)cc1 [Vatalanib] + COc1cccc2cc(-c3nc([C@H]4CC[C@H](C(=O)O)CC4)n4ncnc(N)c34)[nH]c12 [OSI-027] (partner 0.5 µM)

1.01
0.602
1.06
0.885
0.718
0.491

FYI, the data here is from the supplement of paper PMC10307832.
